Target: T1, LNX2_2, Q8N448
T1 sequence (Q8N448 334-432, limits assumed, looked up): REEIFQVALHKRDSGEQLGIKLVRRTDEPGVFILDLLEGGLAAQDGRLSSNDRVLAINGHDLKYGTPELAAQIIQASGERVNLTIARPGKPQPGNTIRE
Experiment: holdup assay
Parameters: key: below the threshold = too weak to quantify, mostly under pKd 3.1 to 4
Conditions: plain residues with an end cap or a label only (N-terminal biotin on a linker: ttds)
Property Label: pKd

{"Binder": "DKDPHSETAL [TMIGD1, Q6UXZ0]", "pKd": "below the threshold"}
{"Binder": "RPLPRKVSQL [DOCK4, Q8N1I0]", "pKd": "below the threshold"}
{"Binder": "SGSRPSATVV [HPV73-E6, Q82005]", "pKd": 4.98}
{"Binder": "NDPAWDETNL [ARHGEF7, Q14155;Q14155-1]", "pKd": "below the threshold"}

// switching to the query binder
Requested read-out: pKd. Entry: FHPLGADSQV [SLC2A1, P11166]
below the threshold
